Source of measurements: paper PMC12756182

Molecular target: T1, HetR (Nostoc PCC 7120, UniProt P27709 1-299)
T1 construct: HetR, master transcriptional regulator of heterocyst differentiation, Nostoc/Anabaena PCC 7120; purified protein used in ITC and EMSA; also called master transcriptional regulator HetR; source: purified (as previously described)
T1 sequence (looked up): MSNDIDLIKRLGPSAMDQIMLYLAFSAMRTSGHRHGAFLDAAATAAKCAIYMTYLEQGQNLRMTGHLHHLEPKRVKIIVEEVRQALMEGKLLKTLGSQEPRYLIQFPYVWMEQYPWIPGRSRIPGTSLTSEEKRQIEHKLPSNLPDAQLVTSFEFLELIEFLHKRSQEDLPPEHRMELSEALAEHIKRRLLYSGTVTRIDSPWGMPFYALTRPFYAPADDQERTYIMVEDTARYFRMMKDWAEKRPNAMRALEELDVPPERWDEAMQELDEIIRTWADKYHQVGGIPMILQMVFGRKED
Assay: ITC; PatX6 (200 μM, syringe) titrated into HetR (22 μM, cell), 25°C, PBS pH 7.4, one-site binding model, MicroCal PEAQ-ITC
Details: both partners purified
measuredEndpoint: Kd (nM)
Provide only the numeric value, understood in nM.

Data request: Kd lookup needed for HRGTGR (also called PatX6 hexapeptide; PatX-derived hexapeptide; source: synthetic peptide (Genecust)) [PatX-6 peptide (HRGTGR)] , thanks.
Data returned: 88
